Taken from ChEMBL document CHEMBL5303573.

- PROCEDURE_SUMMARY: The drug is tested on Bacteroides finegoldii strain: DSM17565 for biotransformation. The drug concentrations were measured before and after a 12-h incubation by liquid-chromatography-coupled mass spectrometry (LC–MS)
- TEST_CONDITIONS: 2 µM
QUANTITY: Bacterial Biotransformation

>>> observed_value("CCCCCCOC(=O)/N=C(/N)c1ccc(NCc2nc3cc(C(=O)N(CCC(=O)OCC)c4ccccn4)ccc3n2C)cc1.CS(=O)(=O)O [DABIGATRAN ETEXILATE MESYLATE]")
"Compound NOT metabolized"
>>> observed_value("CCOc1ccc2nc(S(N)(=O)=O)sc2c1 [ETHOXZOLAMIDE]")
"Compound metabolized"
>>> observed_value("O=C1NCC2(CCN(CCc3ccccc3)CC2)O1 [FENSPIRIDE]")
"Compound NOT metabolized"
>>> observed_value("Br.COc1ccc2c(c1)[C@]13CCCC[C@@H]1[C@H](C2)N(C)CC3.O [DEXTROMETHORPHAN HYDROBROMIDE]")
"Compound NOT metabolized"
>>> observed_value("COc1ccccc1OCC(O)CN1CCN(CC(=O)Nc2c(C)cccc2C)CC1 (configuration not stated)")
"Compound NOT metabolized"
>>> observed_value("O=P(O)(O)O.c1ccc(CN(CC2=NCCN2)c2ccccc2)cc1 [ANTAZOLINE PHOSPHATE]")
"Compound NOT metabolized"
>>> observed_value("CS(=O)(=O)O.O.O.O.O=C1Cc2cc(CCN3CCN(c4nsc5ccccc45)CC3)c(Cl)cc2N1 [ZIPRASIDONE MESYLATE]")
"Compound NOT metabolized"
>>> observed_value("CC(C)OC(=O)C(C)(C)Oc1ccc(C(=O)c2ccc(Cl)cc2)cc1 [FENOFIBRATE]")
"Compound NOT metabolized"
>>> observed_value("CN[C@H]1CC[C@@H](c2ccc(Cl)c(Cl)c2)c2ccccc21")
"Compound NOT metabolized"
>>> observed_value("CN1CCC(OC(c2ccccc2)c2ccccc2)CC1")
"Compound NOT metabolized"
>>> observed_value("CCOC(=O)C1=C(C)NC(C)=C(C(=O)OC)C1c1cccc([N+](=O)[O-])c1 (configuration not stated)")
"Compound metabolized"
>>> observed_value("COc1ccc2[nH]c([S+]([O-])Cc3ncc(C)c(OC)c3C)nc2c1 (configuration not stated)")
"Compound metabolized"
>>> observed_value("Clc1cccc(Cl)c1N=C1NCCN1")
"Compound NOT metabolized"
>>> observed_value("CC[C@H](C)C(=O)O[C@H]1CCC=C2C=C[C@H](C)[C@H](CC[C@@H]3C[C@@H](O)CC(=O)O3)[C@H]21")
"Compound metabolized"
>>> observed_value("COc1cc2nc(N(C)CCCNC(=O)C3CCCO3)nc(N)c2cc1OC (configuration not stated)")
"Compound NOT metabolized"
>>> observed_value("CN(C)CC(c1ccc(O)cc1)C1(O)CCCCC1.O=C(O)CCC(=O)O (configuration not stated) [DESVENLAFAXINE SUCCINATE]")
"Compound NOT metabolized"
>>> observed_value("CN1CCN(C2=Nc3cc(Cl)ccc3Nc3ccccc32)CC1")
"Compound NOT metabolized"
>>> observed_value("COc1cc2nc(N3CCN(C(=O)C4CCCO4)CC3)nc(N)c2cc1OC (configuration not stated)")
"Compound NOT metabolized"
>>> observed_value("CC[C@@]1(O)C(=O)OCc2c1cc1n(c2=O)Cc2cc3c(CN(C)C)c(O)ccc3nc2-1")
"Compound NOT metabolized"
>>> observed_value("O=C(CCCN1CCC(O)(c2ccc(Cl)cc2)CC1)c1ccc(F)cc1")
"Compound NOT metabolized"
>>> observed_value("CCN(CC)CCCC(C)Nc1c2ccc(Cl)cc2nc2ccc(OC)cc12 (configuration not stated)")
"Compound NOT metabolized"
>>> observed_value("O=C1N=C([O-])NC1(c1ccccc1)c1ccccc1.[Na+] [PHENYTOIN SODIUM]")
"Compound NOT metabolized"
